- Tested on: MS2 coat protein
- MEASUREMENT NOTES: apparent Kd, MS2 coat protein; higher = weaker binding; RNA-MaP array; FMN 200 µM where present
- CONDITION DETAILS: ligand present: flavin mononucleotide; designed as: OFF switch for flavin mononucleotide
REPORTED METRIC: apparent Kd (nM)
Lab book: enter the figure in nM, no units written.

As a guide, the following entries are already answered.
CCUCCACAUUAGGAUAUCAUCAAACUAUUGUGAUGAGAAGGAAUGACAUGAGGAUCACCCAUGUUAUCGUGAUG: 18.1
GUCAGCUCGUGAGGAUAUACAACACUGCUUCGGCAGUGUAUUAAGACCACAUGAGGAUCACCCAUGUAGAAGGCACGAGCUGAU: 14.3
CGAUAUUAUGCAGGAUAUCUAUCUUGAAUGAGGAGAGAAGGGCAUAGGGAGACAUAAGCCUUAUUACAUGAGGAUCACCCAUGU: 9.38

Query block: Which value of apparent Kd has been reported for GGAUAGGACGGAGGAUAUACGUGCUAGAGAUACUAGCAAAAUUUCCUCACAUGAGGAUCACCCAUGUAGAAGGCUGUCCUAUCG in the records?
Result block: 222

Query block: Which value of apparent Kd has been reported for AAUAGCUGAGGAUAUACAUGAGGAUCACCCAUGUAUUAGUAGGCUGGGAAUAAAUCGUGUAGAAGGCAGGAUGA in the records?
Result block: 27.2

Query block: Which value of apparent Kd has been reported for UGAGCAUGAGGAUAUACUUGGCGACCGUGAGGUCGAGGUUUACAUGAGGAUCACCCAUGUAGAAGGCAUGUUCU in the records?
Result block: 52.6

Query block: Which value of apparent Kd has been reported for UGUCCAUAGCAGAAGGCACAUCCACAAAAUAAAACAUGAGGAUCACCCAUGUGAGGAUAUGCUAUGGACUAAGAGCGAAAGCUC in the records?
Result block: 21.8

====

- Tested on: MS2 coat protein
- MEASUREMENT NOTES: apparent Kd, MS2 coat protein; higher = weaker binding; RNA-MaP array; FMN 200 µM where present
- CONDITION DETAILS: designed as: ON switch for flavin mononucleotide; no ligand
REPORTED METRIC: apparent Kd (nM)
Lab book: enter the figure in nM, no units written.

AAUAAACUCACAGGAUAUAGCAGAGGUCGCGUGAACUUACAGACGACUAUGCUAGAAGGGUGACCACAUGAGGAUCACCCAUGU: 869

Shift focus to the following entry.
Query block: Which value of apparent Kd has been reported for GGUAUCUCCAGUGAGGAUAUGCGGCGUAGAACAUGAGGAUCACCCAUGUCCUUCGAAUGGGUUACGCAGAAGGCACUACGGUACC in the records?
Result block: 36.6

====

- Test system: MS2 coat protein
- MEASUREMENT NOTES: apparent Kd, MS2 coat protein; higher = weaker binding; RNA-MaP array; FMN 200 µM where present
- CONDITION DETAILS: ligand present: flavin mononucleotide; designed as: OFF switch for flavin mononucleotide
Outcome: yes (1) for apparent Kd of at least 0.03 µM; no (0) for anything lower.

See these solved cases before continuing.
CGUUCAGAGAACGAUACGAAUAGACAUGAGGAUCACCCAUGUAGAAGGACAACGGAAUAAACGUUGUAGGAUAUACAUUUAGUG: yes (1)
AUAAUGAGAGGAUAUACAUGAGGAUCACCCAUGUUAUUAUCACGGCGAGCUCCAUUACGUAGAAGGCUCAUUUA: yes (1)
AAGUCACGAAUAAUAAUAAGAUCUACAUGAGGAUCACCCAUGUAGGAUAUGCAGUGGAAUACACUGCAGAAGGACAUACGUGAC: no (0)
CGAUAGGACAGAGGAUAUACACAUGAGGAUCACCCAUGUGAUUACAACGCUUAAGCUCCAAACAUGUAGAAGGCUGUCCUAUCG: no (0)
CUACGUGUCGAGAAGGGCUCACGUAACGGAACAGCAGGAUAUCGACAUGAGGAUCACCCAUGUCGGAACGAACGGAUCUUUAAU: no (0)

Query block: Quick check, apparent Kd >= 0.03 µM? GCCCGCGCUAAGGAUAUCAGGGUUAAAAUAGUAUGAGAAGGUAGCACAUGAGGAUCACCCAUGUGUCCCUUAUG
Result block: no (0)

Query block: Quick check, apparent Kd >= 0.03 µM? UGUCGGAGCAGAGGAUAUUACAUGAGGAUCACCCAUGUAUGAACCAAUAGCUGGGAACAGCAAUGUAAGAAGGCUGCUCCGACA
Result block: yes (1)

Query block: Quick check, apparent Kd >= 0.03 µM? GGUGCGUAUGUGAGGAUAUGCUGGUCCUUGGCUCGGCAGAAGGCACAUGAGGAUCACCCAUGUGGUGUCGUACA
Result block: yes (1)

Query block: Quick check, apparent Kd >= 0.03 µM? UUUAUUUCGGCAGGAUAUACAUGUAUAUAUAUUUCUUUAUAUCUUAUUACAUGAGGAUCACCCAUGUAGAAGGGCCUUCUUAUC
Result block: yes (1)

Query block: Quick check, apparent Kd >= 0.03 µM? UUUUAACAUGAGGAUCACCCAUGUGAGGAUAUCGAAAUUUAUAUUAAUAUUUUUAAAACGAGAAGGCACAUUUU
Result block: yes (1)

Query block: Quick check, apparent Kd >= 0.03 µM? GCAUGUAAGCAGAAGGGCAGACAUUUUGAUGCUGCAGGAUAUGCAGAAUCAUAUCCACAUGAUAACAUGAGGAUCACCCAUGUA
Result block: no (0)

Query block: Quick check, apparent Kd >= 0.03 µM? UUAUGUUUUGUAGGAUAUCAUUAGAUUUGUAAUUUAAUUGUAAUUUAGAUAUGAGAAGGACAUUUACAUGAGGAUCACCCAUGU
Result block: no (0)

Query block: Quick check, apparent Kd >= 0.03 µM? UCAUACAUGAGGAUCACCCAUGACAUGAGGAUCACCCAUGUGCAGGAUAUACGUGAUAUAAUAUAGUAGAAGGGCAGACUAUAU
Result block: yes (1)

Query block: Quick check, apparent Kd >= 0.03 µM? AUAAACAUGAGGAUCACCCAUGUGAGAAGGCGCAUUACUAUAUUUAUACACUUUAAUACUAACAGCGAGGAUAUCACCUCAUAA
Result block: no (0)

Query block: Quick check, apparent Kd >= 0.03 µM? CUUAUGUGAGGAUAUCAGUAGUAAAAAAAUAAAAUUACUACUGAGAAGGCACAUGAGGAUCACCCAUGUUCCUC
Result block: yes (1)

Query block: Quick check, apparent Kd >= 0.03 µM? CGUGACUCAGGAUAUCUAUAAUAUCACAUGAGGAUCACCCAUGUCCAGCAAUAGCUGGAGGGAGAAGGGAGUCACG
Result block: yes (1)

Query block: Quick check, apparent Kd >= 0.03 µM? GAUAUGGGAGGAUAUGCAUAGAUAAAGAAACAUGUUCAACCACAUGAGGAUCACCCAUGUAGAAGGCCCAUAUC
Result block: yes (1)

====

Below, each entry is listed alongside its reported apparent Kd.
- Tested on: MS2 coat protein
- MEASUREMENT NOTES: apparent Kd, MS2 coat protein; higher = weaker binding; RNA-MaP array
- CONDITION DETAILS: ligand present: theophylline; designed as: OFF switch for theophylline
Lab book: enter the figure in nM, no units written.

Query block: Which value of apparent Kd has been reported for UUUUACGCAAGUAAUUCCCGGGAACCGGAUACCAGCUCCUCCAACAGCCCUUGGCAGCCGACCACAUGAGGAUCACCCAUGUUUC in the records?
Result block: 19.3

Query block: Which value of apparent Kd has been reported for CUCGGAACAAUCGAUACCAGUUCUCAUGGAUUGCAGCAGUACAUGAGGAUCACCCAUGUAAACCCUUGGCAGCGAAGAACAAGAC in the records?
Result block: 55.3

Query block: Which value of apparent Kd has been reported for CAAUGCGGUUAGGAUACCAGCGACACACACUUCUCACAACACAUGAGGAUCACCCAUGUCCGCCCUUGGCAGCCUUGACUAAGGU in the records?
Result block: 146

Query block: Which value of apparent Kd has been reported for CAAGAAUGACGUACAGAUAACAAUAACGAUACCAGUACAUCAUUAUACCCUUGGCAGCGUUUCACAUGAGGAUCACCCAUGUACA in the records?
Result block: 18.4

Query block: Which value of apparent Kd has been reported for CAGCAACAAUUGGAUACCAGCCAUUACAGGUAUCAUUAUAACAUGAGGAUCACCCAUGUAGGCCCUUGGCAGCCAUUGGUGUAAG in the records?
Result block: 106

Query block: Which value of apparent Kd has been reported for CAUCAUGGGCUUGGACAAAUUGUGCUUGAUACCAGAAAUCACCGGUUCCCUUGGCAGCAACCCACAUGAGGAUCACCCAUGUGGA in the records?
Result block: 31.2

Sourced from the EternaBench riboswitch data
